- System: SK-MEL-2
- protocol.details: Cytotoxicity against human SK-MEL-2 cells by SRB assay
- Type: functional
- study.conditions: read-out: ED50 (the source's name)
molecules and their reported EC50
value.type: EC50 (mg/L)

INSERT INTO assay_data (molecule, measurement_units, value_reported) VALUES
  ('C=C1C(=O)O[C@@H]2[C@@H]1[C@H](OC(=O)C(C)C)C(=O)[C@@H](C)C[C@H](O)C[C@](C)(O)[C@H]2OC(=O)/C(C)=C\C [CARDIVIN C]', 'mg/L', 1.08),
  ('C=C1C(=O)O[C@@H]2[C@@H]1[C@H](OC(=O)C(C)C)C(=O)[C@@H](C)C[C@H](O)C[C@](C)(O)[C@H]2OC(=O)C(C)C [CARDIVIN D]', 'mg/L', 1.88),
  ('C=C1C(=O)O[C@@H]2[C@@H]1[C@H](OC(=O)/C(C)=C\C)C(=O)[C@@H](C)C[C@H](O)C[C@](C)(O)[C@H]2OC(=O)C(C)CC (stereo not given in full) [CARDIVIN A]', 'mg/L', 1.16),
  ('C=C1C(=O)O[C@@H]2[C@@H]1[C@H](OC(=O)C(C)CC)C(=O)[C@@H](C)C[C@H](O)C[C@](C)(O)[C@H]2OC(=O)C(C)C (stereo not given in full) [CARDIVIN B]', 'mg/L', 1.45),
  ('COc1cccc2c1C(=O)c1c(O)c3c(c(O)c1C2=O)C[C@@](O)(C(=O)CO)C[C@@H]3O[C@H]1C[C@H](N)[C@H](O)[C@H](C)O1 [DOXORUBICIN]', 'mg/L', 0.11);
